Test system: SW480
protocol_details: cell viability (CellTiter-Glo) relative to plate median (fraction of plate median); higher = more viable cells
run_parameters: 5 µM; treatment time 24 h; reporter: 7TFP
Overview of reported cell viability across a group of compounds:

Value lookup for cell viability; key = CN[C@@H](C)[C@@H](O)c1ccccc1 0.978

What about this compound? CN(C)C(=O)Oc1cc(OC(=O)N(C)C)cc(C(O)CNC(C)(C)C)c1 (stereo not given) 0.961

What about this compound? CC(=O)OCC1=C(C(=O)O)N2C(=O)[C@@H](NC(=O)CCC[C@@H](N)C(=O)O)[C@H]2SC1 0.916

What about this compound? O=c1[nH]c2ccccc2n1CCCN1CCC(n2c(=O)[nH]c3cc(Cl)ccc32)CC1 0.94

What about this compound? COc1ccc(OC)c(C(O)C(C)N)c1 (stereo not given) 0.926

###

Tested on: SW480
protocol_details: cell viability (CellTiter-Glo) relative to plate median (fraction of plate median); higher = more viable cells
run_parameters: 5 µM; treatment time 24 h; reporter: 7TFP
Overview of reported cell viability across a group of compounds:
Answer with a number only.

These solved cases illustrate the format of a correct answer.
>  <smiles_string>
CC(=O)Oc1ccc(/C=C/c2cc(OC(C)=O)cc(OC(C)=O)c2)cc1

>  <system>
SW480

>  <cell viability>
1.09

$$$$
>  <smiles_string>
COc1cc2c(cc1O)CCN[C@@H]2C

>  <system>
SW480

>  <cell viability>
1.01

$$$$
>  <smiles_string>
O=C1C(Cl)=C(Cl)C(=O)C(Cl)=C1Cl

>  <system>
SW480

>  <cell viability>
0.991

$$$$
>  <smiles_string>
C[CH2][Hg][S]c1ccccc1C(=O)[O-].[Na+]

>  <system>
SW480

>  <cell viability>
0.0225

$$$$
>  <smiles_string>
COc1cc2ccc(=O)oc2c2ccoc12

>  <system>
SW480

>  <cell viability>
0.935

$$$$

Please examine the following record next.
Value lookup for cell viability; key = C[C@@H](CO)NC(=O)[C@@H]1C=C2c3cccc4[nH]cc(c34)C[C@H]2N(C)C1 0.939

###

Overview of reported cell viability across a group of molecules:
Test system: HCT116
protocol_details: cell viability (CellTiter-Glo) relative to plate median (fraction of plate median); higher = more viable cells
run_parameters: 5 µM; treatment time 24 h; reporter: TCF4/Wnt
Answer with a number only.

>  <molecule>
CNc1ccc(C(=O)CC(O)CCC(C)C2OC(=O)CC(O)CC(=O)CC(O)CC(O)CC(O)CC(O)CC3(O)CC(O)C(C(=O)OC)C(CC(O[C@@H]4O[C@H](C)[C@@H](O)[C@H](N)[C@@H]4O)/C=C/C=C/C=C/C=C/C=C/C=C/C=C/C2C)O3)cc1.COC(=O)C1C(O)CC2(O)CC(O)CC(O)CC(O)CC(O)CC(=O)CC(O)CC(=O)OC(C(C)CCC(O)CC(=O)c3ccc(N)cc3)C(C)/C=C/C=C/C=C/C=C/C=C/C=C/C=C/C(O[C@@H]3O[C@H](C)[C@@H](O)[C@H](N)[C@@H]3O)CC1O2 (stereo partly drawn)

>  <cell viability>
0.959

$$$$
>  <molecule>
COc1ccc(C[C@H]2NC[C@H](O)[C@H]2OC(C)=O)cc1

>  <cell viability>
0.513

$$$$

Value lookup for cell viability; key = CCCCCCCCCCCC[C@@H](O)[C@H]1CC[C@H]([C@H](O)CCCC[C@H](O)CCCCC[C@@H](O)CC2=CC(C)OC2=O)O1 (stereo partly drawn) [annonacin] 0.933

###

Tested on: HCT116
protocol_details: cell viability (CellTiter-Glo) relative to plate median (fraction of plate median); higher = more viable cells
run_parameters: 5 µM; treatment time 24 h; reporter: TCF4/Wnt
cell viability vs 1: less than gives 1; not less than gives 0.

Here are 4 compounds together with their reported answers.
>  <compound>
COc1cc2c(cc1O)C[C@H]1c3c(cc(O)c(OC)c3-2)CCN1C

>  <class_name>
0

$$$$
>  <compound>
CNC(=O)ON=C(C)SC

>  <class_name>
1

$$$$
>  <compound>
CC(C)C[C@H](CN)CC(=O)O

>  <class_name>
0

$$$$
>  <compound>
N#C[C@H](O[C@@H]1O[C@H](CO[C@@H]2O[C@H](CO)[C@@H](O)[C@H](O)[C@H]2O)[C@@H](O)[C@H](O)[C@H]1O)c1ccccc1

>  <class_name>
0

$$$$

Next:
In plain terms, does C=C1C2CC[C@@]3(C)[C@H](c4ccoc4)OC(=O)C[C@]13O[C@H]1CC(=O)C(C)(C)[C@H](C(OC(C)=O)C(=O)OC)[C@@]21C (stereo not given in full) come in under 1 for cell viability? 0

###

Tested on: SW480
protocol_details: cell viability (CellTiter-Glo) relative to plate median (fraction of plate median); higher = more viable cells
run_parameters: 5 µM; treatment time 24 h; reporter: 7TFP
Overview of reported cell viability across a group of compounds:
Answer with a number only.

These solved cases illustrate the format of a correct answer.
>  <compound>
CC[C@@H](C)C(=O)O[C@H]1[C@H](O)[C@H]2[C@@H](CN3C[C@@H](C)CC[C@H]3[C@@]2(C)O)[C@@H]2C[C@]34O[C@]5(O)[C@@H](OC(=O)[C@](C)(O)[C@@H](C)O)CC[C@@]3(C)[C@@H]5[C@@H](OC(C)=O)[C@@H](OC(C)=O)[C@H]4[C@@]21O (stereo in doubt)

>  <measured_property>
cell viability

>  <result_value>
1.08

$$$$
>  <compound>
COP(=S)(OC)Oc1ccc(SC)c(C)c1

>  <measured_property>
cell viability

>  <result_value>
1.04

$$$$
>  <compound>
CC[C@H]1[C@@H]2C[C@H]3[C@@H]4N(C)c5ccccc5[C@]45C[C@@H]([C@@H]2[C@H]5O)N3[C@@H]1O

>  <measured_property>
cell viability

>  <result_value>
0.95

$$$$
>  <compound>
CC(C)c1ccc2c(c1O)CC[C@H]1C3=C(CC[C@]21C)C(=O)OC3

>  <measured_property>
cell viability

>  <result_value>
1.09

$$$$
>  <compound>
CC1CC(Cl)CCC1C(=O)OC(C)(C)C (configuration not stated)

>  <measured_property>
cell viability

>  <result_value>
0.956

$$$$

Param readout= cell viability; system= SW480; entry= COc1cccc(C2(O)CCCCC2CN(C)C)c1 (configuration not stated) ; returns value. 1

What about this compound? COC1=C[C@@H]2[C@@H]3Cc4ccc(OC)c(O)c4[C@]2(CCN3C)CC1=O 0.987

What about this compound? Oc1cccc2cccnc12 1.1

What about this compound? O=C(O)CC[N+](=O)[O-] 0.986

What about this compound? N#C[C@H](O[C@@H]1O[C@H](CO[C@@H]2O[C@H](CO)[C@@H](O)[C@H](O)[C@H]2O)[C@@H](O)[C@H](O)[C@H]1O)c1ccccc1 1.01

What about this compound? CC(C)=CCC[C@]1(C)C=Cc2c(O)c3c(c(CC=C(C)C)c2O1)O[C@]12C(=C[C@@H]4C[C@H]1C(C)(C)O[C@@]2(C/C=C(/C)C(=O)O)C4=O)C3=O 1.09

What about this compound? CC(CC(C(N)=O)(c1ccccc1)c1ccccc1)N(C)C (configuration not stated) 1.01

What about this compound? CON1C(=O)[C@H]2NC(=O)[C@]13Oc1cc(O)c(Cl)cc1[C@@H]3SS2 0.841

What about this compound? C[N+]1(C)[C@@H]2C[C@@H](OC(=O)[C@H](CO)c3ccccc3)C[C@H]1[C@@H]1O[C@@H]12 1.03

What about this compound? C=C[C@H]1CN2CC[C@H]1C[C@H]2[C@H](O)c1ccnc2ccccc12 1.01

What about this compound? CCC1(C2=NCCN2)Cc2ccccc2O1 (configuration not stated) 1.02

What about this compound? CC(=O)O[C@@H]1[C@H]2CC[C@H]3[C@@](C)(O)[C@@H]4C[C@H](O)C(C)(C)[C@@]4(O)[C@H](O)C[C@@]13C[C@@]2(C)O 1.09

###

Overview of reported cell viability across a group of molecules:
Tested on: SW480
protocol_details: cell viability (CellTiter-Glo) relative to plate median (fraction of plate median); higher = more viable cells
run_parameters: 5 µM; treatment time 24 h; reporter: 7TFP
Answer with a number only.

These solved cases illustrate the format of a correct answer.
>  <molecule>
C/C=C/[C@H]1O[C@@](O)([C@@H](C)[C@H](O)[C@H](C)[C@H]2OC(=O)/C(OC)=C/C(C)=C/[C@@H](C)[C@@H](O)[C@@H](C)[C@@H](O)[C@H](C)C/C(C)=C/C=C/[C@@H]2OC)C[C@@H](O[C@H]2C[C@@H](O)[C@H](OC(N)=O)[C@@H](C)O2)[C@@H]1C

>  <result_value>
1.05

$$$$
>  <molecule>
CN[C@@H]1[C@@H](O)[C@@H](O[C@@H]2[C@@H](O)[C@H](O[C@H]3O[C@H]([C@@H](C)O)[C@@H](O)[C@H](O)[C@H]3N)[C@@H](N)C[C@H]2N)OC[C@]1(C)O

>  <result_value>
1.08

$$$$
>  <molecule>
O=C1C=CC(=O)c2ccccc21

>  <result_value>
0.989

$$$$
>  <molecule>
CN(C)C(=O)Oc1ccc[n+](C)c1

>  <result_value>
1.02

$$$$

Value lookup for cell viability; key = NCC(CC(=O)O)c1ccc(Cl)cc1 (stereo unspecified) 1.03
